Data origin: ChEMBL document CHEMBL6096644

- assay explanation: in vitro
- measurement parameters: mouse, liver microsomes
- Description: Metabolic stability in mouse liver microsomes assessed as parent compound remaining measured after 90 mins in presence of NADPH/H+ by HPLC analysis
quantity kind: remaining at 1.5 h (%)
Give bare numbers, in %.

remaining at 1.5 h reported for this compound O=c1oc2ccccc2n1C1CCOC2(CCN(Cc3ccccc3)CC2)C1 (stereo unspecified) : 74

###

- assay explanation: physchem
- measurement parameters: n-octanol/MOPS aqueous buffer, pH 7.4
- Description: Distribution coefficient, logD of compound in n-Octanol/MOPS aqueous buffer at pH 7.4 by shake-flask method based mass spectrometry analysis
quantity kind: logD
Numbers only.

Below: 2 compounds and their reported logD.
O=c1oc2ccccc2n1C1CCOC2(CCN(Cc3ccccc3)CC2)C1 (stereo not drawn) : 2.42
c1cc2c(cc1C1CCOC3(CCN(CC4CCCC4)CC3)C1)CCO2 (stereo not drawn) : 2.34

Turning to the following compound.
Sample Oc1cccc(CN2CCC3(CC2)CC(CCc2ccccc2)CCO3)c1 (stereo not drawn) ; logD observed: 3.33

###

- assay explanation: in vitro
- measurement parameters: human, human serum
- Description: Plasma protein binding in human serum by HPAC analysis
quantity kind: fraction unbound
One number for each entry.

Lab book: fraction unbound of O=c1oc2ccccc2n1C1CCOC2(CCN(Cc3ccccc3)CC2)C1 (stereo unspecified) noted as 0.15
